Exercise: for every item that follows, state its recorded fold induction at 1 µM.
target: CYP3A4 (Homo sapiens); experiment: Induction of human CYP3A4 assessed as fold change at 1 uM by CYP450 induction assay; type: ADME; settings: read-out: FC
Sequence (P08684 whole entry): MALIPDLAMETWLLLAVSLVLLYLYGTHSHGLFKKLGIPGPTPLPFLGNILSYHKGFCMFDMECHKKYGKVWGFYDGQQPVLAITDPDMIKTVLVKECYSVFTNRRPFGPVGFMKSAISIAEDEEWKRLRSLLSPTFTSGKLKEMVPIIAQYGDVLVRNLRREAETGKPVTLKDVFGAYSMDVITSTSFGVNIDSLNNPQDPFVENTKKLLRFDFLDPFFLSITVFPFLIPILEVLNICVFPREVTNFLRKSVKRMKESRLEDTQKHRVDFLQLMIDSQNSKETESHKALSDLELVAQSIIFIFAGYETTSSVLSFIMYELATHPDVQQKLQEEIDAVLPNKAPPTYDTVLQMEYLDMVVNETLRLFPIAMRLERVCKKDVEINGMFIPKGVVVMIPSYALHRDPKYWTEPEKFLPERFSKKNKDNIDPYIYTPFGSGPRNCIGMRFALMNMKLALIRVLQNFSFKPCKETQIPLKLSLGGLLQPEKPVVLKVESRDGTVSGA
Answer with the value's number alone.

Recorded fold induction at 1 µM (molecule "COc1nn(C)cc1C(=O)N[S@@]1(=O)=NC(=O)c2ccc3c(c2)N(C[C@@H]2CCO[C@H]2[C@@H](OC)/C(F)=C/C[C@H](C)C1)C[C@@]1(CCCc2cc(Cl)ccc21)CO3" ): 1.3

Recorded fold induction at 1 µM (molecule "COc1nn(C)cc1C(=O)N[S@@]1(=O)=NC(=O)c2ccc3c(c2)N(C[C@@H]2CCO[C@H]2[C@@](CN2CCN4CCOC[C@@H]4C2)(OC)/C(F)=C/C[C@H](C)C1)C[C@@]1(CCCc2cc(Cl)ccc21)CO3" ): 1

###

biological target: Cytochrome P450 2D6 (Homo sapiens); assay: Inhibition of human CYP2D6 assessed as fluorescent metabolites by CYP450 inhibition assay; assay type: ADME
Sequence (P10635 whole entry): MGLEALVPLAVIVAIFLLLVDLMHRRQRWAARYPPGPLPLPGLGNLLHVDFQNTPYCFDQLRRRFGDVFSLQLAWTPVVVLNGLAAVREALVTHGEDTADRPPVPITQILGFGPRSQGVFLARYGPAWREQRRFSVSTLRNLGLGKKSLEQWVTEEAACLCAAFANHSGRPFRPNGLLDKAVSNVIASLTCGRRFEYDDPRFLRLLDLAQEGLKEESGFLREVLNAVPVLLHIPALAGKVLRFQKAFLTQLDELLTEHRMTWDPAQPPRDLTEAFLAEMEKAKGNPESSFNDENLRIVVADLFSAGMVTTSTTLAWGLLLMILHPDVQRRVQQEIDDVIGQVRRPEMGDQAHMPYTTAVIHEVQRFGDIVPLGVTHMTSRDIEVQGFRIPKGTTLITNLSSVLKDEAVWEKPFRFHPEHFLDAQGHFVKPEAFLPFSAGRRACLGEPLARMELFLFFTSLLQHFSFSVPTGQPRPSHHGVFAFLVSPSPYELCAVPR
readout_type: inhibition (INH)

[[record]]
smiles_code = "Cc1c2c(nn1C)CSCc1cc(n(C)n1)CSc1cc(c3ccccc3c1)OCCCc1c(C(=O)O)n(C)c3c-2c(Cl)ccc13"
measured = "Not Active"

[[record]]
smiles_code = "Cc1c(-c2c(-c3ccc(F)o3)sc3ncnc(O[C@H](Cc4ccccc4OCc4ccnn4CC(F)(F)F)C(=O)O)c23)ccc(OCCN2CCN(C)CC2)c1Cl"
measured = "Not Active"

[[record]]
smiles_code = "COc1nn(C)cc1C(=O)N[S@@]1(=O)=NC(=O)c2ccc3c(c2)N(C[C@@H]2CCO[C@H]2[C@@](CN2CCN4CCOC[C@@H]4C2)(OC)/C(F)=C/C[C@H](C)C1)C[C@@]1(CCCc2cc(Cl)ccc21)CO3"
measured = "Not Active"


###

assay: Cardiotoxicity risk in human iPSC-CM assessed as calcium transients at 10 uM by CTCM assay; format: toxicity, cell-based
readout_type: Activity

Please review the entries below; each comes with its answer.
[[record]]
molecule = "C[C@@H]1[C@@H](C)C/C=C(\\F)[C@H](OCCN2CCOCC2)[C@@H]2OCC[C@H]2CN2C[C@@]3(CCCc4cc(Cl)ccc43)COc3ccc(cc32)C(=O)NS1(=O)=O"
measured = "Non-Toxic"

[[record]]
molecule = "CO[C@]1(CN2CCN3CCCC[C@@H]3C2)/C=C/C[C@H](C)[C@@H](C)S(=O)(=O)NC(=O)c2ccc3c(c2)N(C[C@@H]2CC[C@H]21)C[C@@]1(CCCc2cc(Cl)ccc21)CO3 [MURIZATOCLAX]"
measured = "Non-Toxic"

[[record]]
molecule = "COc1nn(C)cc1C(=O)N[S@]1(=O)=NC(=O)c2ccc3c(c2)N(C[C@@H]2CCO[C@H]2[C@](CN2CCN4CCOC[C@@H]4C2)(OC)/C(F)=C/C[C@H](C)C1)C[C@@]1(CCCc2cc(Cl)ccc21)CO3"
measured = "Non-Toxic"

[[record]]
molecule = "COc1nn(C)cc1C(=O)N[S@@]1(=O)=NC(=O)c2ccc3c(c2)N(C[C@@H]2CCO[C@H]2[C@@H](OC)/C=C/C[C@H](C)C1)C[C@@]1(CCCc2cc(Cl)ccc21)CO3"
measured = "Non-Toxic"


// next entry
Recorded Activity (molecule "C[C@@H]1[C@@H](C)C/C=C/[C@H](OCCN2CCOCC2)[C@@H]2OCC[C@H]2CN2C[C@@]3(CCCc4cc(Cl)ccc43)COc3ccc(cc32)C(=O)NS1(=O)=O" ): Non-Toxic

Values from ChEMBL document CHEMBL5380869
